TARGET: Bifunctional epoxide hydrolase 2 (Homo sapiens, UniProt P34913)
Sequence (P34913 whole entry): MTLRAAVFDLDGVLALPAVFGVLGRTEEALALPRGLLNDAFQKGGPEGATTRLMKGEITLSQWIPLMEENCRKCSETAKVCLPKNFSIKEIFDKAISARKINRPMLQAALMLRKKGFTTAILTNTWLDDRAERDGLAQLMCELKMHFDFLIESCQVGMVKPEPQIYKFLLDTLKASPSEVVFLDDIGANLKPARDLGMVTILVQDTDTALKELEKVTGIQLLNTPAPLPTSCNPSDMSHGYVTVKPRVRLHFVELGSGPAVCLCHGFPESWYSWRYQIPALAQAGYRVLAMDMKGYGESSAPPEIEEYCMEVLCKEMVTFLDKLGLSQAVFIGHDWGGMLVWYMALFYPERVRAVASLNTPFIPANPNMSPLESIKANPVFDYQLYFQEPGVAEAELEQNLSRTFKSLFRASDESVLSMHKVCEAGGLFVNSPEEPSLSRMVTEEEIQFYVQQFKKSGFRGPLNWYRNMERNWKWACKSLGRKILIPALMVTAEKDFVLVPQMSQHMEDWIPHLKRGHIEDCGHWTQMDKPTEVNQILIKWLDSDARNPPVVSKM
RUN DESCRIPTION: Inhibition of recombinant human liver soluble epoxide hydrolase expressed in baculovirus infected Sf21 cells using NEPC as substrate by fluorescence based assay
Assay type: cell-based
OBSERVED PROPERTY: IC50 (nM)
Expressed in nM, but write only the number.

# assay system Bifunctional epoxide hydrolase 2 (Homo sapiens, UniProt P34913): give IC50 of O=C(NC1C2CC3C4CC5CC3C1C(C5)C4C2)N[C@H]1CC[C@H](Oc2ccc(C(=O)O)cc2)CC1 (stereo partly specified)
0.5

# assay system Bifunctional epoxide hydrolase 2 (Homo sapiens, UniProt P34913): give IC50 of CC12CC3CC1(C)CC3(CNC(=O)Nc1ccc(F)c(F)c1F)C2
0.4

# assay system Bifunctional epoxide hydrolase 2 (Homo sapiens, UniProt P34913): give IC50 of CC(=O)N1CCC(NC(=O)NC23CC4(C)CC2CC4(C)C3)CC1
6.5

# assay system Bifunctional epoxide hydrolase 2 (Homo sapiens, UniProt P34913): give IC50 of CC(=O)N1CCC(NC(=O)NC2C3CC4C5CC6CC4C2C(C6)C5C3)CC1 (stereo unspecified)
3.4

# assay system Bifunctional epoxide hydrolase 2 (Homo sapiens, UniProt P34913): give IC50 of CC(=O)N1CCC(NC(=O)NC23CC4CC(CC2C4)C3)CC1
21.7

# assay system Bifunctional epoxide hydrolase 2 (Homo sapiens, UniProt P34913): give IC50 of CC12CC3CC1(C)CC3(NC(=O)Nc1ccc(F)c(F)c1F)C2
0.5

Data provenance is ChEMBL document CHEMBL4396961.
